Values were extracted from ChEMBL document CHEMBL1201862.

assay: NIH-3T3 fibroblast cytotoxicity, dose response, cytotoxicity control, cell-based, fluorescence, Alamar Blue, secondary assay (AID 2327); type: functional;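 note: NIH-3T3 mouse fibroblasts cultured with fluconazole at 8 µg/mL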
The source made the active and inactive calls. Cut-off read from the data, not from the text of the source: actives have a measured EC50 and inactives only a lower limit.
Attribute: EC50

- Molecule: "O=C(N/N=C/c1cc(Br)ccc1O)c1ccccc1Cl"
  EC50: "> 160 µM (inactive)"
- Molecule: "O=C(Nc1ccccc1Cl)/C(Cl)=C(\\Cl)[S+]([O-])c1ccccc1 (centres undefined)"
  EC50: "3.5 µM (active)"
- Molecule: "Cc1ccccc1Nc1ncccc1C(=O)N1CCOCC1"
  EC50: "> 160 µM (inactive)"
- Molecule: "CCn1c2ccccc2c2cc(NC(=O)C(C)C)ccc21"
  EC50: "63.3 µM (active)"
